# tested on: T1, human IL-33 (R&D Systems, #3625-IL-010/CF) (human) (UniProt O95760)
# T1 sequence (looked up): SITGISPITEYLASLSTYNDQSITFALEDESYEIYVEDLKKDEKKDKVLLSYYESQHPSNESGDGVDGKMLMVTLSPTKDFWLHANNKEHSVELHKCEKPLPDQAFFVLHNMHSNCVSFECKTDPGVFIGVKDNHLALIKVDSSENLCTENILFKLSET
Kindly state IC50; SEAP reporter (OD 620), HEK-BLUE IL-33/IL-1beta cells, 10 pM hIL-33 for each of the entries shown.
Your answer is read as M, so omit the unit and give the number.

Suppose we examine the binder H4H9663P (antibody, from another filing, IgG4, V domains shown) VH: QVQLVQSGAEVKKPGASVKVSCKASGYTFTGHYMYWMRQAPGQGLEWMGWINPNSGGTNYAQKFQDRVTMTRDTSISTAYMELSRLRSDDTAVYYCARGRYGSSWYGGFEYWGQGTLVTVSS VL: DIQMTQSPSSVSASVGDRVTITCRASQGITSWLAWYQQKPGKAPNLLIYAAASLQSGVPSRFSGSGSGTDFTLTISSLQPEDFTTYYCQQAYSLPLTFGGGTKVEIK ; what IC50; SEAP reporter (OD 620), HEK-BLUE IL-33/IL-1beta cells, 10 pM hIL-33 value has been reported?
1.5e-09

Name the reported IC50; SEAP reporter (OD 620), HEK-BLUE IL-33/IL-1beta cells, 10 pM hIL-33 value associated with the binder H4H9672P (antibody, from another filing, IgG4, V domains shown) VH: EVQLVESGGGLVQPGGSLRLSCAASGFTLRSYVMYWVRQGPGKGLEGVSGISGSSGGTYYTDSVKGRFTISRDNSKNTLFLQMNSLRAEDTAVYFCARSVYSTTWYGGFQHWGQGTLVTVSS VL: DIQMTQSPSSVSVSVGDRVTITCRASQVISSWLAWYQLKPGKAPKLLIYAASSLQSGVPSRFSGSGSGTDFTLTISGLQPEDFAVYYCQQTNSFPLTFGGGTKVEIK
9.8e-10

Fill blank: measured IC50; SEAP reporter (OD 620), HEK-BLUE IL-33/IL-1beta cells, 10 pM hIL-33 of the binder H4H9671P (antibody, from another filing, IgG4, V domains shown) VH: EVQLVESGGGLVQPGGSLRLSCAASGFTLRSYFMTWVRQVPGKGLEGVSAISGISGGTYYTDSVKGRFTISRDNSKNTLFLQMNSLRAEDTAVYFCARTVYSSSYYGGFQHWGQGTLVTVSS VL: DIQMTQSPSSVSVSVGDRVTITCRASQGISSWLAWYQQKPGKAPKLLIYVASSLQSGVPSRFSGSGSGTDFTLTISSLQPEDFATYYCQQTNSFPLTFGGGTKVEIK is ____.
5.7e-10

So what's the measured IC50; SEAP reporter (OD 620), HEK-BLUE IL-33/IL-1beta cells, 10 pM hIL-33 for this one? H4H9660P (antibody, from another filing, IgG4, V domains shown) VH: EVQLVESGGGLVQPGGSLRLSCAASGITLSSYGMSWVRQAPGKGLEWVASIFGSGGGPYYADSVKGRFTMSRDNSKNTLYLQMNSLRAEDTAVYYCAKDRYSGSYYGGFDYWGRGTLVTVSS VL: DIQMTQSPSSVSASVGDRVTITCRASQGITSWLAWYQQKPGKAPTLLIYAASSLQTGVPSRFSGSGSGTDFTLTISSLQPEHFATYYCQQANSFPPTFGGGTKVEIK
3.8e-11

Which value of IC50; SEAP reporter (OD 620), HEK-BLUE IL-33/IL-1beta cells, 10 pM hIL-33 has been reported for H4H9665P (antibody, from another filing, IgG4, V domains shown) VH: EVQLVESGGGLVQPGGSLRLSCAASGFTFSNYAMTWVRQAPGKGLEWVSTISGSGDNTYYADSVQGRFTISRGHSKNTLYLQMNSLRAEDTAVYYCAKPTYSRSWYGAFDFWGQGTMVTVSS VL: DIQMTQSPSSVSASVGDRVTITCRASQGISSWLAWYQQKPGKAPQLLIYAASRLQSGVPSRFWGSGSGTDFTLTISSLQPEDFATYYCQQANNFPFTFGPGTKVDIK in the records?
1.1e-09

GET /values?readout=IC50; SEAP reporter (OD 620), HEK-BLUE IL-33/IL-1beta cells, 10 pM hIL-33&item= H4H9666P (antibody, from another filing, IgG4, V domains shown) VH: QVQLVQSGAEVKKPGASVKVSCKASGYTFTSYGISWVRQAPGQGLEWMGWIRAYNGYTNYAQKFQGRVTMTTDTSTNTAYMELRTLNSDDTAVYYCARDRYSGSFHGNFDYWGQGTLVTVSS VL: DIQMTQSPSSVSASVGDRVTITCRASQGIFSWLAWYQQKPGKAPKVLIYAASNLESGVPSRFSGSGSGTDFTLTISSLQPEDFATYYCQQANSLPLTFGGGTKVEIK
7.1e-10

Reported IC50; SEAP reporter (OD 620), HEK-BLUE IL-33/IL-1beta cells, 10 pM hIL-33, binder H4H9664P (antibody, from another filing, IgG4, V domains shown) VH: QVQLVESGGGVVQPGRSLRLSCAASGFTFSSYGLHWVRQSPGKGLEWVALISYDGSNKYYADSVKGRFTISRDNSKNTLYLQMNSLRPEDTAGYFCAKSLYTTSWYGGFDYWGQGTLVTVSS VL: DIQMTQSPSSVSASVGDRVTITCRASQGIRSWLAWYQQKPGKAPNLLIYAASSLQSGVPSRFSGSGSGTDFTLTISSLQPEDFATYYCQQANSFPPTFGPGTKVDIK : ____
1.5e-10

Sample H4H9667P (antibody, from another filing, IgG4, V domains shown) VH: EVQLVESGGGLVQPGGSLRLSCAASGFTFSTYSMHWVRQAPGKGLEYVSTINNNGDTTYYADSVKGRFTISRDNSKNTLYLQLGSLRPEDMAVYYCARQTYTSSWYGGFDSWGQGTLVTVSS VL: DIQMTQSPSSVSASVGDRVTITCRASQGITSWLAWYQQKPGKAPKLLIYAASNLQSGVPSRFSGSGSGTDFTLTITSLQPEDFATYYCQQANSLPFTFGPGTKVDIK — what was its IC50; SEAP reporter (OD 620), HEK-BLUE IL-33/IL-1beta cells, 10 pM hIL-33?
1e-09

Fill in: IC50; SEAP reporter (OD 620), HEK-BLUE IL-33/IL-1beta cells, 10 pM hIL-33 of H4H9662P (antibody, from another filing, IgG4, V domains shown) VH: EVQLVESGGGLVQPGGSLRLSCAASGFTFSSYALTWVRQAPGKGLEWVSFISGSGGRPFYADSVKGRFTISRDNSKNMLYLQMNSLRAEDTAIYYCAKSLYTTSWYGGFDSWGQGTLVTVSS VL: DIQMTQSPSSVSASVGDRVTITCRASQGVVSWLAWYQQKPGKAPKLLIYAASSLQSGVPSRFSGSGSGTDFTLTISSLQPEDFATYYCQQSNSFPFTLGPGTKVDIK is ___
1.5e-10
